# SYSTEM: Fibroblast growth factor 2 (Homo sapiens)
# ASSAY SUMMARY: FGF2 binders on small-molecule microarrays, primary screen, biochemical, small-molecule microarray, 635/667 nm fluorescence (AID 1133)
# RECORDED CONDITIONS: small-molecule microarray binding, FGF2, fluorescence 635/667; higher = more signal
MEASURED ENDPOINT: composite z-score
I only need the number, thanks.

>>> reported_value("[N-]=[N+]=NCc1ccccc1[C@H]1OC(c2ccc(OCCCO)cc2)=N[C@@]1(Cc1ccccc1N=[N+]=[N-])C(=O)N1CCOCC1")
-0.335

QUERY: Write down measured composite z-score (Fibroblast growth factor 2 (Homo sapiens)) for this compound. C=CCNC(=O)[C@H]1[C@@H]2C(=O)O[C@@H](c3ccccc3)[C@@H](c3ccccc3)N2[C@@H](c2ccc(O)cc2)[C@]12C(=O)Nc1ccc(C#CCC(C(=O)OC)C(=O)OC)cc12
RESULT: 0.497

QUERY: Write down measured composite z-score (Fibroblast growth factor 2 (Homo sapiens)) for this compound. C[C@]1(C(=O)NC2CC2)c2ccccc2C(=O)N(Cc2cc(F)cc(C(F)(F)F)c2)[C@H]1c1ccc(CO)cc1
RESULT: -0.785

QUERY: Write down measured composite z-score (Fibroblast growth factor 2 (Homo sapiens)) for this compound. COCCOC(=O)N1C(=O)[C@@]2(c3cc(C#CCNC(N)=O)ccc31)[C@H](C(N)=O)[C@H]1C(=O)O[C@H](c3ccccc3)[C@H](c3ccccc3)N1[C@@H]2c1ccc(O)cc1
RESULT: 0.287

QUERY: Write down measured composite z-score (Fibroblast growth factor 2 (Homo sapiens)) for this compound. O=C1O[C@H](c2ccccc2)[C@H](c2ccccc2)N2[C@H]1[C@@H](C(=O)N1CCN(c3ncccn3)CC1)[C@]1(C(=O)Nc3ccc(C#CC4(O)CCCCCC4)cc31)[C@H]2c1ccc(O)cc1
RESULT: 0.89

QUERY: Write down measured composite z-score (Fibroblast growth factor 2 (Homo sapiens)) for this compound. CCCC[C@@H](O)C1=C(C)Cn2c(=O)n(-c3ccccc3)c(=O)n2[C@H]1CO
RESULT: 0.0632

###

# SYSTEM: Torsin-1A (Homo sapiens)
# ASSAY SUMMARY: small-molecule binders of mutant TOR1A in lysate, primary screen, cell lysate, small-molecule microarray, COS7 lysate, 635/667 nm fluorescence (AID 1150);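 also: score pools 667 nm emission and signal to noise measuring lysate protein binding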
# RECORDED CONDITIONS: COS7 hTOR1A mutant lysate, 635 nm fluorescence, higher = more signal
MEASURED ENDPOINT: composite z-score
I only need the number, thanks.

>>> reported_value("Cc1ccc(S[C@]2(C(=O)NC3CC3)CC(=O)N(C3Cc4ccccc4C3)[C@@H]2c2ccc(CO)cc2I)cc1")
0.701
>>> reported_value("COCCCNC(=O)[C@]1(Cc2ccccc2CN=[N+]=[N-])N=C(c2ccc(OCCCO)cc2)O[C@@H]1c1ccccc1N=[N+]=[N-]")
0.557
>>> reported_value("C=CCC(OC(C)=O)[C@@H]1[C@@H](N(Cc2ccc(-c3ccccc3)cc2)C(=O)Cc2ccc(OC)cc2)c2cc(OCCCO)ccc2N1C(=O)Cc1ccc(OC)cc1 (stereo partly drawn)")
0.212

Okay, next one:
QUERY: // fetch composite z-score given entry Cc1ccc(N2C(=O)c3ccccc3[C@@H](C(=O)NCCN3CCOCC3)[C@@H]2c2ccc(CO)cc2)nc1
RESULT: -1.65

From: PubChem BioAssay
